For each record, write down the corresponding GI50.
- Test system: M14
- Assay Overview: NCI tumour cell line growth inhibition, 48 h
The source made the active and inactive calls. Cut-off read from the data, not from the text of the source: active = GI50 up to about 1.1 µM and inactive = higher.

-- ask Query the reported GI50 for M14; item: Cc1ccc(N2C(=O)/C(=C/c3ccc(N(CCC#N)CCC#N)cc3C)N=C2c2cc([N+](=O)[O-])ccc2Cl)cc1
-- reply > 100 µM (inactive)

-- ask Query the reported GI50 for M14; item: O=[N+]([O-])c1cc([N+](=O)[O-])c(C(Cl)C(Cl)c2ccccc2)cc1C(Cl)C(Cl)c1ccccc1 (stereo not drawn)
-- reply 1.49 µM (inactive)

-- ask Query the reported GI50 for M14; item: O=C1c2ccccc2C(=O)N1CCCC(=O)n1cc(F)c(=O)[nH]c1=O
-- reply 14.5 µM (inactive)

-- ask Query the reported GI50 for M14; item: COc1ccc2c(c1)-c1nn(CCCN(C)C)c3ccc([N+](=O)[O-])c(c13)N2
-- reply 0.61 µM (active)

-- ask Query the reported GI50 for M14; item: Cc1ccc(S(=O)(=O)N/N=C2/CCC(C(C)(C)C)CC2Br)cc1 (stereo not drawn)
-- reply 17.9 µM (inactive)

-- ask Query the reported GI50 for M14; item: CC1CC(C)C(C(O)CC2CC(=O)N(c3ccccc3)C(=O)C2)C(O)C1 (stereo not drawn)
-- reply > 100 µM (inactive)

-- ask Query the reported GI50 for M14; item: CC(C(N)=O)N(C)C(=O)c1cc2ccccc2[n+](Cc2ccccc2)c1 (stereo not drawn)
-- reply > 100 µM (inactive)

-- ask Query the reported GI50 for M14; item: Cn1c(=O)c2nc(CCNC(=O)c3ccccc3)[nH]c2n(C)c1=O
-- reply > 100 µM (inactive)

-- ask Query the reported GI50 for M14; item: C[C@H]1[C@H](C)CC[C@]2(C(=O)OC3OC(CO)C(O)C(O)C3O)CC[C@]3(C)C(=CC[C@@H]4[C@@]5(C)C[C@@H](O)[C@@H]6OC(=O)c7cc(O)c(O)c(O)c7-c7c(cc(O)c(O)c7O)C(=O)OC[C@@]6(CO)[C@@H]5CC[C@]43C)[C@H]12 (stereo partly drawn)
-- reply > 100 µM (inactive)

-- ask Query the reported GI50 for M14; item: COc1cccc2c1/c(=C/c1ccc(N(C)C)cc1)c1cc(-c3ccccc3)[n+](C)n12
-- reply 0.126 µM (active)

-- ask Query the reported GI50 for M14; item: COC(=O)C1(Cc2cccc(Cl)c2)CCCCCCN1C(=O)c1ccccc1 (stereo not drawn)
-- reply 17.9 µM (inactive)

-- ask Query the reported GI50 for M14; item: CC(=O)O[C@@H]1C=C(C)[C@H](CBr)O[C@@]2(C)CC[C@H](Br)C(C)(C)[C@H]12
-- reply > 100 µM (inactive)

-- ask Query the reported GI50 for M14; item: CCN1CCC(CNC(=O)c2ccc(N)cc2)N1CC (stereo not drawn)
-- reply > 100 µM (inactive)

-- ask Query the reported GI50 for M14; item: Cc1nc2cn3c(c2c(=O)[nH]1)CCCCC3
-- reply > 100 µM (inactive)

-- ask Query the reported GI50 for M14; item: O=C(CN1CCCCC1)Nc1ccc2c(c1)C1Oc3ccccc3CC1CO2 (stereo not drawn)
-- reply 18.2 µM (inactive)

-- ask Query the reported GI50 for M14; item: Cc1cc(N)c(C)c2c1[nH]c1ccc(O)cc12
-- reply > 100 µM (inactive)

-- ask Query the reported GI50 for M14; item: CN(Cc1cnc2nc(N)nc(N)c2n1)c1ccc(C(=O)N[C@@H](CCC(=O)O)C(=O)O)cc1 [METHOTREXATE]
-- reply 0.0334 µM (active)

-- ask Query the reported GI50 for M14; item: COc1ccc(/C=C2\CCC(C)/C(=C\c3ccc(OC)c(OC)c3)C2=O)cc1OC (stereo not drawn)
-- reply 5.38 µM (inactive)

* * *

- Test system: CCRF-CEM
- Assay Overview: NCI tumour cell line growth inhibition, 48 h
The source made the active and inactive calls. Cut-off read from the data, not from the text of the source: active = GI50 up to about 1.1 µM and inactive = higher.
Your response should consist of one outcome taken from active, inactive

-- ask Hey, what did the test say about CN1C2(c3ccccc3)c3c(-c4ccccc4)sc(-c4ccccc4)c3C1(c1ccccc1)C1C(=O)N(c3ccccc3)C(=O)C12 (stereo not given) ?
-- reply inactive

-- ask Hey, what did the test say about O=c1c(O)c(-c2ccccc2)n(O)c2ccc(Cl)cc12 ?
-- reply inactive

-- ask Hey, what did the test say about O/N=C1\C/C(=N\O)c2c(Br)sc(Br)c21 ?
-- reply inactive

-- ask Hey, what did the test say about Cc1ccc(S(=O)(=O)N/N=C/CN2C(=O)c3ccccc3C2=O)cc1 ?
-- reply inactive

-- ask Hey, what did the test say about CO[C@H]1[C@@H](O)[C@H](O[C@@H]2C[C@H]3CC[C@@H]4[C@H](CC[C@]5(C)[C@@H](C6=CC(=O)OC6)CC[C@]45O)[C@@]3(C)[C@H](OC(C)=O)C2)O[C@@H](C)[C@H]1O ?
-- reply active

-- ask Hey, what did the test say about Cc1cc(SCC(=O)c2ccc(Br)cc2)cc(C)[o+]1 ?
-- reply inactive

-- ask Hey, what did the test say about COC(=O)c1cc(OC)c(OC)c(OC)c1-c1cc2c(cc1C=O)OCO2 ?
-- reply inactive

-- ask Hey, what did the test say about CN(C)/N=N/c1nc2c(c(=O)n(C)c(=O)n2C)n1C ?
-- reply inactive

-- ask Hey, what did the test say about COc1ccc(OCC(=O)O)c2c1CCC(C)C2=O (stereo not given) ?
-- reply inactive

-- ask Hey, what did the test say about CC(=O)O[C@H]1CCC2[C@@H]3CCC4NC(=O)C(C#N)C[C@]4(C)C3CC[C@@]21C (stereo not given in full) ?
-- reply inactive

-- ask Hey, what did the test say about CC(=O)O[C@H]1C(=O)[C@@]2(C)C(C(OC(=O)c3ccccc3)[C@]3(O)CC(OC(=O)C(O)C(NC(=O)c4ccc(C)cc4)c4ccccc4)C(C)=C1C3(C)C)[C@]1(OC(C)=O)CO[C@@H]1C[C@@H]2O (stereo not given in full) ?
-- reply active

-- ask Hey, what did the test say about Cc1cc(N)c(C)c2c1[nH]c1ccc(O)cc12 ?
-- reply inactive

-- ask Hey, what did the test say about C=CCn1c(=O)ccn(COCCO)c1=O ?
-- reply inactive

-- ask Hey, what did the test say about O=C(Cn1c2ccc(Br)cc2c2nc3ccccc3nc21)Nc1ccccc1 ?
-- reply inactive

-- ask Hey, what did the test say about CC(=O)n1c2ccc(Br)cc2c2nc3ccccc3nc21 ?
-- reply inactive

-- ask Hey, what did the test say about COc1ccc(C2=NN(c3nsc4ccccc34)C(=O)CC2)cc1 ?
-- reply inactive

-- ask Hey, what did the test say about Cc1cccc(/C=C2\CCCc3ccccc3C2=O)c1 ?
-- reply inactive

-- ask Hey, what did the test say about CCOC(=O)c1cc2c([N+](=O)[O-])c(NC(C)=O)ccc2s1 ?
-- reply inactive

-- ask Hey, what did the test say about O=C(c1cccc(F)c1F)N1CCc2c([nH]c3ccccc23)C1c1ccc2c(c1)OCO2 (stereo not given) ?
-- reply inactive

-- ask Hey, what did the test say about COC(=O)[C@]12CSCN1C(=O)C(C(C)=O)=NN2C(=O)[C@](OC)(c1ccccc1)C(F)(F)F ?
-- reply inactive

-- ask Hey, what did the test say about Cc1c(-c2nnc(-c3ccccc3)o2)c(=O)n(-c2ccccc2)n1C ?
-- reply inactive

-- ask Hey, what did the test say about COc1cc(C[C@H]2c3cc(OC)c(OC)cc3CCN2C)c(Oc2cc3c(cc2OC)-c2c(OC)c(OC)cc4c2[C@H](C3)N(C)CC4)cc1OC ?
-- reply inactive

-- ask Hey, what did the test say about CC(=O)OCC1OC(n2c3c(c(-c4ccc(C)cc4)c(C#N)c2=S)C(=O)CC(C)(C)C3)C(OC(C)=O)C(OC(C)=O)C1OC(C)=O (stereo not given) ?
-- reply inactive

-- ask Hey, what did the test say about Cn1c(=O)c2nc(CCNC(=O)c3ccccc3)[nH]c2n(C)c1=O ?
-- reply inactive

-- ask Hey, what did the test say about OC1(c2cccs2)c2cccc(Cl)c2C(O)(c2cccs2)c2c(Cl)cccc21 (stereo not given) ?
-- reply inactive

-- ask Hey, what did the test say about O=C1Nc2c(Cl)cc(Cl)cc2C1=O ?
-- reply inactive

-- ask Hey, what did the test say about Cc1ccc(S(=O)(=O)N/N=C2/CCC(C(C)(C)C)CC2Br)cc1 (stereo not given) ?
-- reply inactive

-- ask Hey, what did the test say about NC(=S)N/N=C1\CC(c2ccccc2)Nc2ccccc21 (stereo not given) ?
-- reply inactive

-- ask Hey, what did the test say about CC(=O)OCCOCn1c2c(c(=O)[nH]c1=O)CCC2 ?
-- reply inactive

-- ask Hey, what did the test say about C=C1C(=O)C[C@@]23CCC[C@@]12CC(OCOC)C3 (stereo not given in full) ?
-- reply inactive

-- ask Hey, what did the test say about Cn1nc(-c2ccccc2)c(C(=O)/C=C/c2ccc(F)cc2)c(N2CCCCC2)c1=O ?
-- reply inactive

-- ask Hey, what did the test say about O=C(CN1CCCCC1)Nc1ccc2c(c1)C1Oc3ccccc3CC1CO2 (stereo not given) ?
-- reply inactive

-- ask Hey, what did the test say about O=c1ccn([C@H]2CSC[C@@H](CO)C2)c(=O)[nH]1 ?
-- reply inactive

-- ask Hey, what did the test say about O=C(O)CCCc1ccc2ccccc2c1 ?
-- reply inactive

-- ask Hey, what did the test say about CN1CCN(C(=S)N2CCN(C)CC2)CC1 ?
-- reply active

-- ask Hey, what did the test say about Cc1ccc2c(c1)C(=O)c1nc(C)ccc1C2=O ?
-- reply inactive

-- ask Hey, what did the test say about O=C(/C=C/c1ccc(Cl)cc1)c1ccccc(=O)c1O ?
-- reply active

-- ask Hey, what did the test say about O=C(CCn1[nH]c(=O)c(Cl)c(Cl)c1=O)NNC(=O)C[n+]1ccccc1 ?
-- reply inactive

-- ask Hey, what did the test say about CC(C)SC(C)(NC(=O)C1C(C)(C)CCC1(C)C)C(=O)O (stereo not given) ?
-- reply inactive

-- ask Hey, what did the test say about C=CC1=C(C)/C(=C/C2=NC(=C\c3[nH]c(CC4NC(=O)C(C)/C4=C\C)c(C)c3CCC(=O)O)/C(CC(=O)O)=C2C)NC1=O (stereo not given) ?
-- reply inactive
